Origin of measurements: patent US20240018502A1

- subject_of_test: plasma purified human complement protein C3 (human) (UniProt P01024)
- Sequence (P01024 23-667, chain 1 of 2): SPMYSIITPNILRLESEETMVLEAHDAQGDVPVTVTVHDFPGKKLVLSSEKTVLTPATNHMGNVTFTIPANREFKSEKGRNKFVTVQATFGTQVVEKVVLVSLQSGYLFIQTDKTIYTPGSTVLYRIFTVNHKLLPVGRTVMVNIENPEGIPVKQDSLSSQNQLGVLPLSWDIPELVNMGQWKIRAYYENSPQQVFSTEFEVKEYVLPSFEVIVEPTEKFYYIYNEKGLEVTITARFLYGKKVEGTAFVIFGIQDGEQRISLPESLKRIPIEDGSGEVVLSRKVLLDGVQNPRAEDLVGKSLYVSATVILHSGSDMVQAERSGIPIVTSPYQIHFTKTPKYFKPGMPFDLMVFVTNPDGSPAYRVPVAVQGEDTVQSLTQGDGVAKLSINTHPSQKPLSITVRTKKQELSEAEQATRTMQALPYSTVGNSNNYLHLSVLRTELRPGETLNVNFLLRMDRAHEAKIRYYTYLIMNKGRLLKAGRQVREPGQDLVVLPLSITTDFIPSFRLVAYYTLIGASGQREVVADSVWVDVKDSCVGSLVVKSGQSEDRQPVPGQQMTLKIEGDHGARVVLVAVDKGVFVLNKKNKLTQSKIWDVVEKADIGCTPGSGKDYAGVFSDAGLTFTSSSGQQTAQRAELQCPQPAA
- Sequence (P01024 672-1663, chain 2 of 2): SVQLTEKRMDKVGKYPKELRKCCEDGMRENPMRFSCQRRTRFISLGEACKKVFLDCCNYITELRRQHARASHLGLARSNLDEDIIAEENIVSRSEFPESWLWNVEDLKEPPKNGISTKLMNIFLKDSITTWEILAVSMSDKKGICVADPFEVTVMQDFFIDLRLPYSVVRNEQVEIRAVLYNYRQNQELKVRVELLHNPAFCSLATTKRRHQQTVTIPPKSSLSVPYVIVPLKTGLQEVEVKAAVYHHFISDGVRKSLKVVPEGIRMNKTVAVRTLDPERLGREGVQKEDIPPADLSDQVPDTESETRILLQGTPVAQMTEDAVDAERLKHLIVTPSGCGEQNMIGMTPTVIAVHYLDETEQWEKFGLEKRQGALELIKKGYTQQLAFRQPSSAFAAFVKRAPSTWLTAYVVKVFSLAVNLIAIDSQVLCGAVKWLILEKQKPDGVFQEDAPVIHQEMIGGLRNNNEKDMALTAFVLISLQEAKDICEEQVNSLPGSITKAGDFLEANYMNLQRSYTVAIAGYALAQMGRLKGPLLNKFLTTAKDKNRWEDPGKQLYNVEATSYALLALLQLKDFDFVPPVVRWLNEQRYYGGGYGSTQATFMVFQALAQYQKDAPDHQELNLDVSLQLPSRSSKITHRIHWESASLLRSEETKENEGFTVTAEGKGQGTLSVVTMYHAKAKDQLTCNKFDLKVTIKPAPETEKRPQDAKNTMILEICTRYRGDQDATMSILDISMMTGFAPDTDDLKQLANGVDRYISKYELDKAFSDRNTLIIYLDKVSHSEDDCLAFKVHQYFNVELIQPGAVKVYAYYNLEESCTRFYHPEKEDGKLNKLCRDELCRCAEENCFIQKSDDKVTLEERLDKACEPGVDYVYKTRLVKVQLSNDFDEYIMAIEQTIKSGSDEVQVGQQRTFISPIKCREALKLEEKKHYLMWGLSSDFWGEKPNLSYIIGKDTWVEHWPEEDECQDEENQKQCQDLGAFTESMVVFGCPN
- test: cell-based or functional assay
readout: EC50 of hC3 cleavage (nM)
Record the value in nM, omitting the unit from your answer.

Consider the reported EC50 of hC3 cleavage for these binders:
• MTSP-1 Q38H/I41S/D60bS/F60eR/Y60gW/F97T/ins97aE/T98G/F99L/C122S/Q175L/Q192E (enzyme) VVGGTDADEGEWPWQVSLHALGHGHSCGASLISPNWLVSAAHCYIDSRGRRWSDPTQWTAFLGLHDQSQRSAPGVQERRLKRIISHPFFNDTEGLDYDIALLELEKPAEYSSMVRPISLPDASHVFPAGKAIWVTGWGHTQYGGTGALILQKGEIRVINQTTCENLLPQLITPRMMCVGFLSGGVDSCEGDSGGPLSSVEADGRIFQAGVVSWGDGCAQRNKPGVYTRLPLFRDWIKENTGV = 8.35
• MTSP-1 Q38H/I41A/D60bT/F60eK/Y60gW/F97T/ins97aE/T98G/F99L/C122S/G151N/Q175L/Q192D (enzyme) VVGGTDADEGEWPWQVSLHALGHGHACGASLISPNWLVSAAHCYIDTRGKRWSDPTQWTAFLGLHDQSQRSAPGVQERRLKRIISHPFFNDTEGLDYDIALLELEKPAEYSSMVRPISLPDASHVFPAGKAIWVTGWGHTQYGGTNALILQKGEIRVINQTTCENLLPQLITPRMMCVGFLSGGVDSCDGDSGGPLSSVEADGRIFQAGVVSWGDGCAQRNKPGVYTRLPLFRDWIKENTGV = 14.4

Now look at this one.
Identify measured EC50 of hC3 cleavage associated with MTSP-1 Q38H/I41A/D60bV/F60eR/Y60gW/D96P/ins97aN/F97W/T98G/F99L/C122S/G151N/Q175L/Q192E (enzyme) VVGGTDADEGEWPWQVSLHALGHGHACGASLISPNWLVSAAHCYIDVRGRRWSDPTQWTAFLGLHDQSQRSAPGVQERRLKRIISHPFFNPWNGLDYDIALLELEKPAEYSSMVRPISLPDASHVFPAGKAIWVTGWGHTQYGGTNALILQKGEIRVINQTTCENLLPQLITPRMMCVGFLSGGVDSCEGDSGGPLSSVEADGRIFQAGVVSWGDGCAQRNKPGVYTRLPLFRDWIKENTGV
1.51
